- assay target: Sterol 14-alpha demethylase (Trypanosoma cruzi (strain CL Brener), UniProt Q7Z1V1)
- Sequence (Q7Z1V1 whole entry): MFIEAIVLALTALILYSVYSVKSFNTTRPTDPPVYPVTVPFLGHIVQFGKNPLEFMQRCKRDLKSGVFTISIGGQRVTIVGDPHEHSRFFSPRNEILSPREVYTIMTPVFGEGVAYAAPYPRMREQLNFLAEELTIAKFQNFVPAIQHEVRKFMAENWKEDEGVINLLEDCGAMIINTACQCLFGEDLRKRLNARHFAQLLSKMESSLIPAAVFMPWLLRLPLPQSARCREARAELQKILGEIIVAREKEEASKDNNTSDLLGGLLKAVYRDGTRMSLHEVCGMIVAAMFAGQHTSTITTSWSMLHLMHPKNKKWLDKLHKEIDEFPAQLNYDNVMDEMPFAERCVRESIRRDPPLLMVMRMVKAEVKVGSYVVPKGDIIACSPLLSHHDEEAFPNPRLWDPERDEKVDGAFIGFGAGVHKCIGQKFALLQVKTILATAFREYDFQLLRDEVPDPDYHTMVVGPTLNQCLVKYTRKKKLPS
- run description: GSK_TCAKS: pIC50 CYP51 from Trypanosoma cruzi.
pIC50: −log10 of the molar value.
assay readout: pIC50

[[record]]
compound = "CCNc1cc(-c2ccccn2)nc(Nc2ccc(OC)cc2)n1"
qualifier_operator = "="
reported_value = 4.40

[[record]]
compound = "CCOc1ccc2nc(NC(=O)c3ccc([N+](=O)[O-])s3)sc2c1"
qualifier_operator = "<"
reported_value = 4.00

[[record]]
compound = "CCOc1ccc(Nc2ccc(S(=O)(=O)N3CCN(C)CC3)cc2[N+](=O)[O-])cc1OCC"
qualifier_operator = "="
reported_value = 4.50

[[record]]
compound = "CNc1nc(C)nc(N2CCc3cc(C(=O)NCc4ccc(-c5cc[nH]n5)cc4Cl)ccc32)n1"
qualifier_operator = "="
reported_value = 5.30

[[record]]
compound = "Cc1ccc2nc(N(Cc3cccnc3)C(=O)CCc3ccccc3)sc2c1"
qualifier_operator = "="
reported_value = 7.20

[[record]]
compound = "O=C(NCC1CCCCC1)c1cnns1"
qualifier_operator = "<"
reported_value = 4.00

[[record]]
compound = "O=C(NCc1ccc(Cl)cc1)C1CN(C(=O)c2ccc(F)cc2)CCS1 (configuration not stated)"
qualifier_operator = "="
reported_value = 4.90

[[record]]
compound = "CC1=NN(C(=O)CCn2cnc([N+](=O)[O-])n2)C(O)(C(F)(F)F)C1 (configuration not stated)"
qualifier_operator = "<"
reported_value = 4.00

[[record]]
compound = "O=C(NNC(=O)c1ccccn1)c1ccc(-c2ccccc2)cc1"
qualifier_operator = "="
reported_value = 4.50

[[record]]
compound = "CC(C)Nc1nc(Cl)nc2ccccc12"
qualifier_operator = "<"
reported_value = 4.00

[[record]]
compound = "Fc1ccccc1N1C[C@H]2CCN(c3cccnc3)C[C@H]2C1"
qualifier_operator = "="
reported_value = 7.20

[[record]]
compound = "N#Cc1cccc(Cc2cc(Nc3cc(C4CC4)[nH]n3)nc(N3CC[C@H]3C(N)=O)n2)c1"
qualifier_operator = "="
reported_value = 4.30

[[record]]
compound = "CC(C(=O)Nc1ccc(Br)cc1)N1CCN(c2ccc([N+](=O)[O-])cc2)CC1 (configuration not stated)"
qualifier_operator = "="
reported_value = 4.40

[[record]]
compound = "O=C(NCCc1ccccn1)C(c1cn[nH]c1)N1CCN(c2ccc(Cl)c(Cl)c2)CC1 (configuration not stated)"
qualifier_operator = "="
reported_value = 6.90

[[record]]
compound = "CC(C)(C)c1cc(NC2CC2)nc(-c2ccccn2)n1"
qualifier_operator = "<"
reported_value = 4.00

[[record]]
compound = "Cc1c(C(=O)NCCCCn2ccnc2)oc2c(C)cccc12"
qualifier_operator = "="
reported_value = 7.00

[[record]]
compound = "Cc1c(C(C)NC(=O)Nc2cccc(Cl)c2)sc2ncnn12 (configuration not stated)"
qualifier_operator = "="
reported_value = 6.90

[[record]]
compound = "O=C(CSc1ccc(-c2ccccn2)nn1)Nc1ccc(Cl)cc1"
qualifier_operator = "<"
reported_value = 4.00

[[record]]
compound = "CCN(C)Cc1ccc(N2CCC(NS(=O)(=O)c3ccc4c(c3)CCO4)CC2)nc1"
qualifier_operator = "<"
reported_value = 4.00

[[record]]
compound = "CC(Cn1ccnc1)NC(=O)C=Cc1ccc(Cl)cc1 (configuration not stated)"
qualifier_operator = "="
reported_value = 6.80

[[record]]
compound = "NC(=O)c1ncc(N[C@@H]2CCCNC2)nc1Nc1cccc(Cl)c1"
qualifier_operator = "<"
reported_value = 4.00

[[record]]
compound = "Cc1cc(C)n(-c2nc(NC(C)C)nc(NC(C)(C)C)n2)n1"
qualifier_operator = "<"
reported_value = 4.00


----------
- run description: GSK_TCAKS: pIC50 HepG2 human cell line viability assay using luminiscence. […] Seeding density was checked to ensure that new mono-layers were not more than 50% confluent at the time of harvesting. Cell suspension was added to 500 mL of the same medium at a final density of 1.2 * 10^5 cells/mL. This cell suspension was dispensed (25 uL, 3000 cells per well) into 384-well clear-bottom plates using a Multidrop Combi dispenser. Prior to addition of the cell suspension, the screening compounds (250 nL) were pre-dispensed into the plates with an Echo liquid handler. Plates were incubated for 48 h at 37C, 5% CO2. After incubation, plates equilibrated at room temperature for 30 min before proceeding to develop the luminescent signal. The signal developer, CellTiter-Glo Reagent, was allowed to equilibrate at room temperature for 30 min and added to the plates (25uL per well) using a Multidrop Combi dispenser. Plates were left for 10 min at room temperature for stabilization and then read using a ViewLux.
- Type: toxicity, cell-based
Item-by-item account of IC50 at 48 h
assay readout: IC50 at 48 h

[[record]]
molecule = "CC(CNS(=O)(=O)c1ccc(OC(F)F)cc1)c1ccc(NC(=O)c2ccncc2)cc1 (stereo not given)"
assay_readout = "IC50 at 48 h"
reported_value = "100 µM"

[[record]]
molecule = "COc1ccc2ncc(=O)n(CCN3CC[C@H](NCc4ncc(Cl)c5[nH]ncc45)[C@H](O)C3)c2n1"
assay_readout = "IC50 at 48 h"
reported_value = "> 100 µM"

[[record]]
molecule = "CCOc1cc(NCCCN2CCN(C)CC2)c2ncccc2c1"
assay_readout = "IC50 at 48 h"
reported_value = "31.6 µM"

[[record]]
molecule = "O=C(Cc1ccccc1)Nc1n[nH]c2sc(C(=O)NC3CCCC3)cc12"
assay_readout = "IC50 at 48 h"
reported_value = "50.1 µM"

[[record]]
molecule = "CC(C)C[C@H](NC(=O)c1csc(-c2cccs2)n1)C(=O)NC1(C#N)CC1"
assay_readout = "IC50 at 48 h"
reported_value = "> 100 µM"


----------
- Test system: NIH3T3
- run description: GSK_TCAKS: pIC50 NIH 3T3 cell line viability assay using luminiscence. Tissue culture surface treated assay plates (1536-well) were used. […] The 100% cells survival control was determined exposing the host-cells to a 0.5% DMSO concentration, whereas the 100% toxicity control was achieved by seeding the cells in presence of Amphotericin B at 50uM. Plates were incubated for four days at 37C, 5% CO2. The assay readout was developed by addition of 5uL of CellTiter-Glo Reagent following the manufacturer's instructions. Luminiscence was measured using a ViewLux.
- Type: functional, cell-based
- cond: Mus musculus, NIH3T3, 96 h
Item-by-item account of IC50
assay readout: IC50 (µM)

[[record]]
compound = "CCCC(=O)N(Cc1ccccn1)c1nc2ccccc2s1"
assay_target = "NIH3T3"
qualifier_operator = ">"
reported_value = 50.1

[[record]]
compound = "Cc1ccc2c(c1)-c1onc(C(=O)N3CCCCC3c3cccnc3)c1CO2 (stereo unspecified)"
assay_target = "NIH3T3"
qualifier_operator = "="
reported_value = 20

[[record]]
compound = "O=C(Cn1cnc([N+](=O)[O-])n1)Nc1ccc(Cl)cc1C(=O)c1ccccc1"
assay_target = "NIH3T3"
qualifier_operator = ">"
reported_value = 50.1

[[record]]
compound = "COc1ccc2nc(N(Cc3cccnc3)C(=O)C3CCC3)sc2c1"
assay_target = "NIH3T3"
qualifier_operator = "="
reported_value = 50.1

[[record]]
compound = "Cc1cc(N(C)C)nc(Nc2ccccc2C)n1"
assay_target = "NIH3T3"
qualifier_operator = "="
reported_value = 39.8

[[record]]
compound = "O=C(c1cccc(Cl)c1Cl)N1CCn2c1nc(-c1ccncc1)cc2=O"
assay_target = "NIH3T3"
qualifier_operator = "="
reported_value = 20

[[record]]
compound = "O=C(Nc1ncc([N+](=O)[O-])s1)C1CC1"
assay_target = "NIH3T3"
qualifier_operator = "="
reported_value = 31.6

[[record]]
compound = "CNc1cncc(C2CCCN2C(=O)Cc2coc3cc(C)ccc23)n1 (stereo unspecified)"
assay_target = "NIH3T3"
qualifier_operator = ">"
reported_value = 50.1

[[record]]
compound = "Cn1nc([N+](=O)[O-])nc1Oc1ccc(C(=O)c2ccccc2)cc1"
assay_target = "NIH3T3"
qualifier_operator = ">"
reported_value = 50.1

[[record]]
compound = "Cc1cccc(NS(=O)(=O)c2ccc3c(c2)C(=O)c2cc(S(=O)(=O)Nc4cccc(C)c4C)ccc2-3)c1C"
assay_target = "NIH3T3"
qualifier_operator = ">"
reported_value = 50.1

[[record]]
compound = "CCCCn1nnnc1CSc1nc(C)cc(C)c1C#N"
assay_target = "NIH3T3"
qualifier_operator = ">"
reported_value = 50.1


----------
Item-by-item account of IC50
- System: Leishmania donovani
- run description: GSK_TCAKS: pIC50 Leishmania donovani Imaging: Amastigotes/Macrophages. Assay plates (384-well) were prepared by adding 250nL of compound to each well. For single shot assay, the final compound concentration was 5 uM. […] Automated image analysis was performed with a script developed on Acapella High Content Imaging and Analysis Software (PerkinElmer). Output: Average number of amastigotes per macrophage cell were reported for each well.
- Type: functional, organism-based, Homo sapiens
- cond: THP-1
assay readout: IC50 (µM)

[[record]]
test_smiles = "NCc1csc(Nc2cc(Oc3ccccc3)ncn2)n1"
assay_readout = "IC50"
qualifier_operator = "="
reported_value = 25.1

[[record]]
test_smiles = "Cc1cc2nc(CN(C)Cc3ncccc3C)[nH]c2cc1C"
assay_readout = "IC50"
qualifier_operator = "="
reported_value = 0.501

[[record]]
test_smiles = "CN(C)S(=O)(=O)c1ccc(Cl)c(C(=O)Nc2nc(-c3ccccn3)cs2)c1"
assay_readout = "IC50"
qualifier_operator = "="
reported_value = 5.01

[[record]]
test_smiles = "CCN(CC)S(=O)(=O)c1ccc(Cn2nc(C(=O)Nc3ccncn3)c3ccccc32)cc1"
assay_readout = "IC50"
qualifier_operator = ">"
reported_value = 50.1

[[record]]
test_smiles = "COc1ccc(Cl)cc1CC(=O)Nc1nnc(-c2ccccn2)[nH]1"
assay_readout = "IC50"
qualifier_operator = "="
reported_value = 5.01

[[record]]
test_smiles = "CCOc1ccccc1C(=O)Nc1nnc(-c2ccc3c(c2)OCO3)s1"
assay_readout = "IC50"
qualifier_operator = "="
reported_value = 0.316


Ref: ChEMBL document CHEMBL3430912
